biological target: cdk1/cyclinB (Homo sapiens, UniProt P06493); experiment: Cyclin dependent kinase 1 assay (cdk1/cyclinB), 32P incorporation, filter plate; conditions: retinoblastoma substrate, 12 mM ATP, 25° C., 15 minutes; read-out: Inhibition of Cdks: IC50 Cdk1/B
Sequence (P06493 whole entry, species assumed): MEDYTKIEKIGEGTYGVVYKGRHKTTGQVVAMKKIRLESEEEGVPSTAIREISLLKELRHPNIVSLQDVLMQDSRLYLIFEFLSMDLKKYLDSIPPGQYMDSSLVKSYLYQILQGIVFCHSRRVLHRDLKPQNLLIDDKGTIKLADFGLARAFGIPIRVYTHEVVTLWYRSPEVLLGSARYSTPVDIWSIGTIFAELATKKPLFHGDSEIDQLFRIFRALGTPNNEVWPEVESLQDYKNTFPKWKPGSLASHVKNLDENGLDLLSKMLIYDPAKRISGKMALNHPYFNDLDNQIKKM
Sequence (P14635 whole entry partner, species assumed): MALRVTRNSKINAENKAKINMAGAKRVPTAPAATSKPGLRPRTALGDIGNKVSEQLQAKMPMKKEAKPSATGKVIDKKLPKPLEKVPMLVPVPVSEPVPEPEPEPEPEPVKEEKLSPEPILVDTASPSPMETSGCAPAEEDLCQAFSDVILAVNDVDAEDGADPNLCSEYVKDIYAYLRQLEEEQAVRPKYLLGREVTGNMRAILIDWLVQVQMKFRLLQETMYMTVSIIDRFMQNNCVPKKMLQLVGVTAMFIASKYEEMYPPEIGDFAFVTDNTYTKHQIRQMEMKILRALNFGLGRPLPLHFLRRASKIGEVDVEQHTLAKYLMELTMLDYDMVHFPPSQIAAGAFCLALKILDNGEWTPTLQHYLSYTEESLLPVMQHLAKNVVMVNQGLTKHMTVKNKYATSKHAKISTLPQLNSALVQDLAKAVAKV
pIC50: −log10 of the molar value.
recordedEndpoint: pIC50

Please state recorded pIC50 (tested on cdk1/cyclinB (Homo sapiens, UniProt P06493)) of Cc1cc(NS(=O)(=O)N(C)C)nc2nc(Nc3ccc(N4CCNCC4)cc3)ncc12
< 5.30

Please state recorded pIC50 (tested on cdk1/cyclinB (Homo sapiens, UniProt P06493)) of CC(C)(C)NC(=O)Nc1nc2nc(Nc3ccc(N4CCNCC4)cc3)ncc2cc1Br
< 5.30

Please state recorded pIC50 (tested on cdk1/cyclinB (Homo sapiens, UniProt P06493)) of Cc1c(F)c(NC(=O)NC(C)C)nc2nc(Nc3ccc(N4CCNCC4)cc3)ncc12
< 5.30

Please state recorded pIC50 (tested on cdk1/cyclinB (Homo sapiens, UniProt P06493)) of Cc1cc(NC(=O)NC2CCCCC2)nc2nc(Nc3ccc(N4CCNCC4)cc3)ncc12
< 5.30

---

melting point values, listed per item

Reference set (3 entries):
1. C[C@@H]1CN(c2ccc(Nc3ncc4cc(Cl)c(NC(=O)NC(C)(C)C)nc4n3)cc2)C[C@H](C)N1 | 205 °C (dec.)
2. CCCN(CCC)C(=O)Nc1ccc2cnc(Nc3ccc(N4CCNCC4)cc3)nc2n1 | 190 °C (dec.)
3. CC(C)(C)NC(=O)Nc1ccc2cnc(Nc3ccc(N4CCN(C(=O)OC(C)(C)C)CC4)cc3)nc2n1 | 225 °C (dec.)

Attention now shifts to the item below.
# get_value(readout='melting point', item= NCCNC(=O)Nc1ccc2cnc(Nc3ccc(F)cc3)nc2n1 )
217 to 220 °C

---

molecular target: cdk2/cyclinA (Homo sapiens, UniProt P24941); assay: Cyclin dependent kinase 2 assay (cdk2/cyclinA), 32P incorporation, filter plate; details: retinoblastoma substrate, 12 mM ATP, 25° C., 15 minutes; read-out: Inhibition of Cdks: IC50 Cdk2/A
recordedEndpoint: IC50

1. O=C(NCCO)Nc1ccc2cnc(Nc3ccc(F)cc3)nc2n1 [Compound 97] | 0.278 µM
2. Cc1cc(NC(=O)NC(C)(C)C)nc2nc(Nc3ccc(N4CCNCC4)cc3)ncc12 [Compound 4] | > 5 µM
3. O=C(Nc1ccc2cnc(Nc3ccc(N4CCNCC4)cc3)nc2n1)N1CCOCC1 [Compound 85] | > 5 µM
4. CN(C(=O)NC1CCCCC1)c1ccc2cnc(Nc3ccc(N4CCNCC4)cc3)nc2n1 [Compound 70] | 0.697 µM

# get_value(readout='IC50', item= O=C(Nc1nc2nc(Nc3ccc(N4CCNCC4)cc3)ncc2cc1F)NC1CCCCC1 [Compound 11] )
0.092 µM

# get_value(readout='IC50', item= Cc1cc2cnc(Nc3ccc(N4C[C@@H](C)N[C@@H](C)C4)cc3)nc2nc1NC(=O)NC(C)C [Compound 119] )
> 5 µM

# get_value(readout='IC50', item= Cc1cc(NC(=O)NC2CCCCC2)nc2nc(Nc3ccc(N4CCNCC4)cc3)ncc12 [Compound 12] )
> 5 µM

# get_value(readout='IC50', item= Cc1cc2cnc(Nc3ccc(N4CCNCC4)cc3)nc2nc1NC(=O)NC(C)(C)C [Compound 118] )
> 5 µM
